Value source: paper PMC12682127

- TARGET_DESC: Mycobacterium tuberculosis α-methylacyl-CoA racemase (MCR) (Mycobacterium tuberculosis, UniProt O06543)
- Sequence (O06543 whole entry): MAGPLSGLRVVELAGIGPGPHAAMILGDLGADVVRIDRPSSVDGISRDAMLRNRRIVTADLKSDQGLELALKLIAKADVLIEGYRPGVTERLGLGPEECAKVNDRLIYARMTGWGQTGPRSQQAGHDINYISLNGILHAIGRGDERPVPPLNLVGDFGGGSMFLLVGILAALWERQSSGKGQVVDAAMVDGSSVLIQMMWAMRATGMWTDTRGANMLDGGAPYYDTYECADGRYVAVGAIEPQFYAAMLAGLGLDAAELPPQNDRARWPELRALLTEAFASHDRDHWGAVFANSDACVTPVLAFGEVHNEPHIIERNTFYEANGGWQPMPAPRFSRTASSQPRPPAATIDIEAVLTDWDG
- MEASUREMENT_NOTES: MCR inhibition, colorimetric assay, dose-response curves
- Format: biochemical
- Set-up: made in house
- STATED_CONDITIONS: Log10 IC50, repeat 2; 4-parameter logistic fit coefficient
QUANTITY: pIC50
pIC50 is a log-scale quantity: -log10 of the concentration expressed in molar.

Below: 2 compounds and their reported pIC50.
CC(Sc1cccc(OCCc2ccccc2)c1)C(=O)SCCNC(=O)CCNC(=O)C(O)C(C)(C)COP(=O)(O)OP(=O)(O)OCC1OC(n2cnc3c(N)ncnc32)C(O)C1OP(=O)(O)O (racemic): 6.05
CC(Sc1ccc(OCCc2ccccc2)cc1)C(=O)SCCNC(=O)CCNC(=O)C(O)C(C)(C)COP(=O)(O)OP(=O)(O)OCC1OC(n2cnc3c(N)ncnc32)C(O)C1OP(=O)(O)O (racemic): 5.52

Let us examine a further case.
The recorded pIC50 for entry CCCCCOc1ccc(SC(C)C(=O)SCCNC(=O)CCNC(=O)C(O)C(C)(C)COP(=O)(O)OP(=O)(O)OCC2OC(n3cnc4c(N)ncnc43)C(O)C2OP(=O)(O)O)cc1 (racemic) equals 6.16

###

- TARGET_DESC: UniProt O06543
- MEASUREMENT_NOTES: MCR inhibition, colorimetric assay, dose-response curves
- Format: biochemical
- Design: made in house
- STATED_CONDITIONS: Log10 IC50, repeat 3; 4-parameter logistic fit coefficient
Catalogue of pIC50 values
pIC50 is a log-scale quantity: -log10 of the concentration expressed in molar.

COc1cccc(COc2cccc(SC(C)C(=O)SCCNC(=O)CCNC(=O)C(O)C(C)(C)COP(=O)(O)OP(=O)(O)OCC3OC(n4cnc5c(N)ncnc54)C(O)C3OP(=O)(O)O)c2)c1 (racemic): 6.64

The recorded pIC50 for entry CC(Sc1cccc(OCCc2cccc(C(F)(F)F)c2)c1)C(=O)SCCNC(=O)CCNC(=O)C(O)C(C)(C)COP(=O)(O)OP(=O)(O)OCC1OC(n2cnc3c(N)ncnc32)C(O)C1OP(=O)(O)O (racemic) equals 6.50

The recorded pIC50 for entry COc1cccc(COc2ccc(SC(C)C(=O)SCCNC(=O)CCNC(=O)C(O)C(C)(C)COP(=O)(O)OP(=O)(O)OCC3OC(n4cnc5c(N)ncnc54)C(O)C3OP(=O)(O)O)cc2)c1 (racemic) equals 5.55

The recorded pIC50 for entry CC(Sc1ccc(OCCc2ccccc2)cc1)C(=O)SCCNC(=O)CCNC(=O)C(O)C(C)(C)COP(=O)(O)OP(=O)(O)OCC1OC(n2cnc3c(N)ncnc32)C(O)C1OP(=O)(O)O (racemic) equals 5.60

###

- TARGET_DESC: Mycobacterium tuberculosis α-methylacyl-CoA racemase (MCR) (Mycobacterium tuberculosis, UniProt O06543)
- MEASUREMENT_NOTES: MCR inhibition, colorimetric assay, dose-response curves
- Type: biochemical
- Design: made in house
- STATED_CONDITIONS: Log10 IC50, repeat 1; 4-parameter logistic fit coefficient
QUANTITY: pIC50
pIC50 is a log-scale quantity: -log10 of the concentration expressed in molar.

Below: 10 compounds and their reported pIC50.
CCCCCOc1ccc(SC(C)C(=O)SCCNC(=O)CCNC(=O)C(O)C(C)(C)COP(=O)(O)OP(=O)(O)OCC2OC(n3cnc4c(N)ncnc43)C(O)C2OP(=O)(O)O)cc1 (racemic): 6.04
COc1cccc(COc2ccc(SC(C)C(=O)SCCNC(=O)CCNC(=O)C(O)C(C)(C)COP(=O)(O)OP(=O)(O)OCC3OC(n4cnc5c(N)ncnc54)C(O)C3OP(=O)(O)O)cc2)c1 (racemic): 5.57
CC(Sc1cccc(OCCc2cccc(C(F)(F)F)c2)c1)C(=O)SCCNC(=O)CCNC(=O)C(O)C(C)(C)COP(=O)(O)OP(=O)(O)OCC1OC(n2cnc3c(N)ncnc32)C(O)C1OP(=O)(O)O (racemic): 6.87
CC(Sc1ccc(OCCc2cccc(C(F)(F)F)c2)cc1)C(=O)SCCNC(=O)CCNC(=O)C(O)C(C)(C)COP(=O)(O)OP(=O)(O)OCC1OC(n2cnc3c(N)ncnc32)C(O)C1OP(=O)(O)O (racemic): 6.08
COc1cccc(CCOc2ccc(SC(C)C(=O)SCCNC(=O)CCNC(=O)C(O)C(C)(C)COP(=O)(O)OP(=O)(O)OCC3OC(n4cnc5c(N)ncnc54)C(O)C3OP(=O)(O)O)cc2)c1 (racemic): 6.17
CC(Sc1ccc(OCCc2ccccc2)cc1)C(=O)SCCNC(=O)CCNC(=O)C(O)C(C)(C)COP(=O)(O)OP(=O)(O)OCC1OC(n2cnc3c(N)ncnc32)C(O)C1OP(=O)(O)O (racemic): 5.67
COc1cccc(COc2cccc(SC(C)C(=O)SCCNC(=O)CCNC(=O)C(O)C(C)(C)COP(=O)(O)OP(=O)(O)OCC3OC(n4cnc5c(N)ncnc54)C(O)C3OP(=O)(O)O)c2)c1 (racemic): 6.40
CC(C)COc1cccc(SC(C)C(=O)SCCNC(=O)CCNC(=O)C(O)C(C)(C)COP(=O)(O)OP(=O)(O)OCC2OC(n3cnc4c(N)ncnc43)C(O)C2OP(=O)(O)O)c1 (racemic): 5.39
CC(Sc1cccc(OCc2ccccc2)c1)C(=O)SCCNC(=O)CCNC(=O)C(O)C(C)(C)COP(=O)(O)OP(=O)(O)OCC1OC(n2cnc3c(N)ncnc32)C(O)C1OP(=O)(O)O (racemic): 5.79
COc1cccc(CCOc2cccc(SC(C)C(=O)SCCNC(=O)CCNC(=O)C(O)C(C)(C)COP(=O)(O)OP(=O)(O)OCC3OC(n4cnc5c(N)ncnc54)C(O)C3OP(=O)(O)O)c2)c1 (racemic): 5.83

The recorded pIC50 for entry CC(Sc1ccc(OCc2ccccc2)cc1)C(=O)SCCNC(=O)CCNC(=O)C(O)C(C)(C)COP(=O)(O)OP(=O)(O)OCC1OC(n2cnc3c(N)ncnc32)C(O)C1OP(=O)(O)O (racemic) equals 5.58

The recorded pIC50 for entry CC(Sc1cccc(OCCc2ccccc2)c1)C(=O)SCCNC(=O)CCNC(=O)C(O)C(C)(C)COP(=O)(O)OP(=O)(O)OCC1OC(n2cnc3c(N)ncnc32)C(O)C1OP(=O)(O)O (racemic) equals 6.10

The recorded pIC50 for entry CC(C)COc1ccc(SC(C)C(=O)SCCNC(=O)CCNC(=O)C(O)C(C)(C)COP(=O)(O)OP(=O)(O)OCC2OC(n3cnc4c(N)ncnc43)C(O)C2OP(=O)(O)O)cc1 (racemic) equals 5.68

###

- TARGET_DESC: UniProt:O06543
- MEASUREMENT_NOTES: MCR inhibition, colorimetric assay, dose-response curves
- Type: biochemical
- Design: made in house
- STATED_CONDITIONS: repeat 3; 4-parameter logistic fit coefficient
Outcome label depends on Hillslope relative to -0.8: at/above gives condition met, below gives condition not met.

Lookup: Hello, I need to know if CC(Sc1cccc(OCCc2ccccc2)c1)C(=O)SCCNC(=O)CCNC(=O)C(O)C(C)(C)COP(=O)(O)OP(=O)(O)OCC1OC(n2cnc3c(N)ncnc32)C(O)C1OP(=O)(O)O (racemic) [Compound 4] has measured Hillslope not below -0.8. Thanks!
Found: condition not met

Lookup: Hello, I need to know if COc1cccc(COc2cccc(SC(C)C(=O)SCCNC(=O)CCNC(=O)C(O)C(C)(C)COP(=O)(O)OP(=O)(O)OCC3OC(n4cnc5c(N)ncnc54)C(O)C3OP(=O)(O)O)c2)c1 (racemic) [Compound 3] has measured Hillslope not below -0.8. Thanks!
Found: condition met

Lookup: Hello, I need to know if CC(Sc1cccc(OCc2ccccc2)c1)C(=O)SCCNC(=O)CCNC(=O)C(O)C(C)(C)COP(=O)(O)OP(=O)(O)OCC1OC(n2cnc3c(N)ncnc32)C(O)C1OP(=O)(O)O (racemic) [Compound 2] has measured Hillslope not below -0.8. Thanks!
Found: condition not met

Lookup: Hello, I need to know if CC(C)COc1ccc(SC(C)C(=O)SCCNC(=O)CCNC(=O)C(O)C(C)(C)COP(=O)(O)OP(=O)(O)OCC2OC(n3cnc4c(N)ncnc43)C(O)C2OP(=O)(O)O)cc1 (racemic) [Compound 13] has measured Hillslope not below -0.8. Thanks!
Found: condition met

Lookup: Hello, I need to know if CC(Sc1ccc(OCCc2cccc(C(F)(F)F)c2)cc1)C(=O)SCCNC(=O)CCNC(=O)C(O)C(C)(C)COP(=O)(O)OP(=O)(O)OCC1OC(n2cnc3c(N)ncnc32)C(O)C1OP(=O)(O)O (racemic) [Compound 12] has measured Hillslope not below -0.8. Thanks!
Found: condition not met

Lookup: Hello, I need to know if CC(Sc1ccc(OCCc2ccccc2)cc1)C(=O)SCCNC(=O)CCNC(=O)C(O)C(C)(C)COP(=O)(O)OP(=O)(O)OCC1OC(n2cnc3c(N)ncnc32)C(O)C1OP(=O)(O)O (racemic) [Compound 10] has measured Hillslope not below -0.8. Thanks!
Found: condition not met

Lookup: Hello, I need to know if CC(C)COc1cccc(SC(C)C(=O)SCCNC(=O)CCNC(=O)C(O)C(C)(C)COP(=O)(O)OP(=O)(O)OCC2OC(n3cnc4c(N)ncnc43)C(O)C2OP(=O)(O)O)c1 (racemic) [Compound 7] has measured Hillslope not below -0.8. Thanks!
Found: condition met

Lookup: Hello, I need to know if COc1cccc(CCOc2cccc(SC(C)C(=O)SCCNC(=O)CCNC(=O)C(O)C(C)(C)COP(=O)(O)OP(=O)(O)OCC3OC(n4cnc5c(N)ncnc54)C(O)C3OP(=O)(O)O)c2)c1 (racemic) [Compound 5] has measured Hillslope not below -0.8. Thanks!
Found: condition not met
